- PROTOCOL_DETAILS: Intrinsic dissolution of various nefazodone salts in water at 37° C.
- Assay type: physicochemical
- MEASUREMENT_PARAMETERS: pH of the aqueous medium after dissolution had occurred

- MOLECULE: "CCc1nn(CCCN2CCN(c3cccc(Cl)c3)CC2)c(=O)n1CCOc1ccccc1 [L-Malate]"
  Final pH: 4.2
- MOLECULE: "CCc1nn(CCCN2CCN(c3cccc(Cl)c3)CC2)c(=O)n1CCOc1ccccc1 [DL-Malate]"
  Final pH: 4.3
- MOLECULE: "CCc1nn(CCCN2CCN(c3cccc(Cl)c3)CC2)c(=O)n1CCOc1ccccc1 [Acetate]"
  Final pH: 5.4
- MOLECULE: "CCc1nn(CCCN2CCN(c3cccc(Cl)c3)CC2)c(=O)n1CCOc1ccccc1 [L-Tartrate]"
  Final pH: 3.8
- MOLECULE: "CCc1nn(CCCN2CCN(c3cccc(Cl)c3)CC2)c(=O)n1CCOc1ccccc1 [Mesylate]"
  Final pH: 4.0

----------
- PROTOCOL_DETAILS: Intrinsic dissolution of various nefazodone salts in water at 37° C.
- Format: physicochemical
- MEASUREMENT_PARAMETERS: pH of the aqueous medium after dissolution had occurred
Where a name gives a salt, the structure may show the parent alone.
The entries below are paired with their reported Final pH.
MEASUREMENT_KIND: Final pH

- MOLECULE: "CCc1nn(CCCN2CCN(c3cccc(Cl)c3)CC2)c(=O)n1CCOc1ccccc1 [D-Malate]"
  MEASUREMENT_KIND: "Final pH"
  VALUE_OBSERVED: 4.2
- MOLECULE: "CCc1nn(CCCN2CCN(c3cccc(Cl)c3)CC2)c(=O)n1CCOc1ccccc1 [Hydrochloride, reference compound]"
  MEASUREMENT_KIND: "Final pH"
  VALUE_OBSERVED: 4.4
- MOLECULE: "CCc1nn(CCCN2CCN(c3cccc(Cl)c3)CC2)c(=O)n1CCOc1ccccc1 [D-Tartrate]"
  MEASUREMENT_KIND: "Final pH"
  VALUE_OBSERVED: 3.7
- MOLECULE: "CCc1nn(CCCN2CCN(c3cccc(Cl)c3)CC2)c(=O)n1CCOc1ccccc1 [Nefazodone base]"
  MEASUREMENT_KIND: "Final pH"
  VALUE_OBSERVED: 7.2

----------
- PROTOCOL_DETAILS: Intrinsic dissolution of various nefazodone salts in water at 37° C.
- Format: physicochemical
- MEASUREMENT_PARAMETERS: n = 2
Where a name gives a salt, the structure may show the parent alone.

- COMPOUND: "CCc1nn(CCCN2CCN(c3cccc(Cl)c3)CC2)c(=O)n1CCOc1ccccc1 [D-Malate]"
  SCALE_UNIT: "mg/min/cm 2"
  Intrinsic Dissolution Rate: 1.15
- COMPOUND: "CCc1nn(CCCN2CCN(c3cccc(Cl)c3)CC2)c(=O)n1CCOc1ccccc1 [Nefazodone base]"
  SCALE_UNIT: "mg/min/cm 2"
  Intrinsic Dissolution Rate: 0.002
- COMPOUND: "CCc1nn(CCCN2CCN(c3cccc(Cl)c3)CC2)c(=O)n1CCOc1ccccc1 [Maleate]"
  SCALE_UNIT: "mg/min/cm 2"
  Intrinsic Dissolution Rate: 0.30
- COMPOUND: "CCc1nn(CCCN2CCN(c3cccc(Cl)c3)CC2)c(=O)n1CCOc1ccccc1 [Hydrochloride, reference compound]"
  SCALE_UNIT: "mg/min/cm 2"
  Intrinsic Dissolution Rate: 0.93
